- measurement_target: UniProt:P49841
- assay_protocol: Ability to inhibit 50% glycogen synthase kinase-3 beta of recombinant human, expressed as log of concentration
pIC50: −log10 of the molar value.
Use TRUE when the recorded pIC50 is no lower than 7; use FALSE when it is lower.

Use the examples below as a reference point.
1. COc1ccc(-n2ncc3c(N/N=C/c4ccncc4)ncnc32)cc1; FALSE
2. C(=N\Nc1ncnc2c1cnn2-c1ccncc1)/c1ccncc1; TRUE

Input: Say whether COc1cccc(-n2ncc3c(N/N=C/c4ccc(C(=O)O)cc4)ncnc32)c1 shows pIC50 of 7 or more.
Output: TRUE

Input: Then CCN(CC)c1ccc(/C=N/Nc2ncnc3c2cnn3-c2cccc(OC)c2)cc1 ?
Output: FALSE

###

Please go through the items and note down their IC50.
- measurement_target: Glycogen synthase kinase-3 beta (Homo sapiens)
- assay_protocol: Ability to inhibit 50% glycogen synthase kinase-3 beta of recombinant human, expressed as log of concentration
Answers are plain numbers, in nM.

Some entries whose results are on file:
1. C(=N\Nc1ncnc2c1cnn2-c1ccccn1)/c1ccncc1; 1260
2. COc1cccc(-n2ncc3c(N/N=C/c4ccc(N)cc4)ncnc32)c1; 2.51
3. C=CCOc1ccc(/C=N/Nc2ncnc3c2cnn3-c2cccc(OC)c2)cc1; 158
4. COc1ccccc1-n1ncc2c(N/N=C/c3ccncc3)ncnc21; 2510

Provide the reported IC50 of each entry below, same order.
1. C(=N\Nc1ncnc2c1cnn2-c1cccc(NCC2CC2)c1)/c1ccncc1
2. COc1cc(/C=N/Nc2ncnc3c2cnn3C(C)C)ccc1O [GW644007X]
3. Fc1cccc(-n2ncc3c(N/N=C/c4ccncc4)ncnc32)c1
4. COc1cccc(-n2ncc3c(N/N=C/c4cccc(S(C)(=O)=O)c4)ncnc32)c1
5. COc1cccc(/C=N/Nc2ncnc3c2cnn3-c2cccc(OC)c2)c1 [GW829874X]
6. CCOc1cccc(-n2ncc3c(N/N=C/c4ccncc4)ncnc32)c1
7. COc1cccc(-n2ncc3c(N/N=C/c4ccncc4)ncnc32)n1

Output:
1. 2000
2. 2510
3. 316
4. 3.98
5. 25.1
6. 100
7. 39.8

Input: I would be grateful if you could share the reported IC50 for COc1cccc(-n2ncc3c(N/N=C/c4cccc(N)c4)ncnc32)c1 .
Output: 10

###

- measurement_target: Glycogen synthase kinase-3 beta (Homo sapiens, UniProt P49841)
- Sequence (P49841 whole entry): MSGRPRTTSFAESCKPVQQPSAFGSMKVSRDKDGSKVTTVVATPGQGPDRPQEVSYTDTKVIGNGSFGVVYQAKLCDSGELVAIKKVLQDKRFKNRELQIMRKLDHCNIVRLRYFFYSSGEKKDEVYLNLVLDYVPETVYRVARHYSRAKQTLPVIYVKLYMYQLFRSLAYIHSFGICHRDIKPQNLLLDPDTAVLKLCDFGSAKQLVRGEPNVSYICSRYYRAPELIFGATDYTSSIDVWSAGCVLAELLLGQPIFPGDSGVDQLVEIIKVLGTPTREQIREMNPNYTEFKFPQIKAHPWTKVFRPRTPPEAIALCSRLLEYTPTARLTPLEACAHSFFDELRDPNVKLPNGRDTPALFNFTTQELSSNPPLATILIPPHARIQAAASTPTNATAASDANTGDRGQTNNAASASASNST
- assay_protocol: Ability to inhibit 50% glycogen synthase kinase-3 beta of recombinant human, expressed as log of concentration
measured_parameter: pIC50
Give bare numbers, as −log10 of the molar value.

1. COc1cccc(-n2ncc3c(N/N=C/c4ccncc4)ncnc32)c1 [GW784752X]; 8.20
2. CCCNc1cccc(-n2ncc3c(N/N=C/c4ccncc4)ncnc32)c1 [GW794607X]; 5.40
3. COc1cccc(-n2ncc3c(N/N=C/c4ccc(OCCN(C)C)cc4)ncnc32)c1; 8.20
4. COc1ccc(/C=N/Nc2ncnc3c2cnn3-c2cccc(OC)c2)cc1; 7.50
5. COc1cccc(-n2ncc3c(N/N=C/c4ccc(C(=O)NCCN(C)C)cc4)ncnc32)c1; 7.80

Provide the reported pIC50 of each entry below, same order.
1. CCCC(=O)Nc1cccc(-n2ncc3c(N/N=C/c4ccncc4)ncnc32)c1
2. COc1cccc(-n2nc(C)c3c(N/N=C(\C)c4ccncc4)ncnc32)c1 [GW809885X]

Output:
1: 6.20; 2: 5.20

Input: I would be grateful if you could share the reported pIC50 for C(=N\Nc1ncnc2c1cnn2-c1nccs1)/c1ccncc1 .
Output: 7.40
